Cited source: PubChem BioAssay (NCI)

Tested on: K-562 leukemia
Assay: NCI-60 one-dose screen, 48 h (100 = growth as untreated, 0 = no growth, -100 = all killed)
Conditions: 10 µM unless noted
Protocol: Cells are grown in 96 well plates and exposed to the test compound for 48 hours. Compounds are tested at a single concentration, which is 10^-5 M for most compounds. The reported endpoint is percent growth (GI% or GIPRCNT), where numbers from 0 - 100% represent growth inhibition, and numbers from -100% - 0 represent cell death. For example, a value of 40 represents 60% growth inhibition. A value of 0 means no net growth occurred over the course of the experiment. […]
Compounds without any hit were thinned out: in the full panel of roughly 83,000, 20% have a hit. The source made the active and inactive calls. How the source made its calls: active means growth percent below 10; inactive means the rest.
growth overview
measuredEndpoint: growth

{"columns": ["inputSmiles", "reportedValue"],
 "data": [
  ["O=C(Nc1nc(C(=O)N2CCN(C(c3ccccc3)c3ccccc3)CC2)cs1)c1ccc(NC2CCCCC2)c([N+](=O)[O-])c1", "83.9% (inactive)"],
  ["Fc1ccc(CNc2c3ccccc3nc3ccccc23)cc1", "4.79% (active)"],
  ["CCOC(=O)Nc1nc2ccc(SCC(C)C)cc2s1", "18% (inactive)"],
  ["COc1cc(-c2nc3occn3c2-c2ccnc(NCCCNS(=O)(=O)c3ccccc3)n2)ccc1F", "26.5% (inactive)"],
  ["CCOC(=O)CSc1nc2sc3c(c2c(=O)n1-c1ccc([N+](=O)[O-])cc1)CCCCC3", "75.2% (inactive)"],
  ["Cn1c(=O)c2c(nc(NC3=NS(=O)(=O)c4ccccc43)n2Cc2ccccc2)n(C)c1=O", "104% (inactive)"],
  ["COc1cc(Nc2ncccc2NC(=O)c2cn(Cc3cccc(Oc4ccccc4)c3)nn2)cc(OC)c1", "45.4% (inactive)"],
  ["CS(=O)(=O)Nc1cncc(-c2ccc3ncnc(Nc4ccc(F)c(Cl)c4)c3c2)c1", "35.3% (inactive)"],
  ["Cc1c2cnccc2c(C)c2c1c1cc(C3OCCCO3)ccc1n2C", "3.75% (active)"],
  ["COc1cc2c3c(n(CCCCNCCCn4c5c(c6cc(OC)c(OC)cc6c4=O)C(=O)c4cc6c(cc4-5)OCO6)c(=O)c2cc1OC)-c1cc2c(cc1C3=O)OCO2", "85.7% (inactive)"],
  ["C=CC(=O)NCCOc1cccc(Nc2cc(NCCCNC(=O)C3CCC3)c(Br)cn2)c1", "9.43% (active)"],
  ["COc1cc(/C=C2\\C(=O)N(c3c(Cl)cccc3Cl)c3ccccc32)cc(OC)c1OCCCCCCn1c2ccccc2c(=O)c2ccccc21", "98.8% (inactive)"]
]}

---

tested on: KM12 colon; experiment: NCI-60 one-dose screen, 48 h (100 = growth as untreated, 0 = no growth, -100 = all killed); details: 10 µM unless noted
About 83,000 compounds went through this panel and 20% of them were active in at least one assay; those are over-represented in the sample as a whole.
Note to self: values exactly at 20% are yes. So growth at or above 20% is yes, below is no.

{"columns": ["molecule", "groupLabel"],
 "data": [
  ["CCCn1c(=S)sc2c1nc(C)n1c(Nc3ccccc3)nnc21", "yes"],
  ["COc1cc(/C=C/c2cc(/C=C/c3ccc(O)c(OC)c3)n(C(=O)Nc3ccc(F)cc3)n2)ccc1O", "no"],
  ["O=C(N/N=C/c1ccc(Cl)cc1Cl)c1ccc2nc(-c3ccc(Cl)cc3)[nH]c2c1", "no"],
  ["C=CC(=O)N1CCN(c2ccc3cccc(NC(=O)c4cnc(C)cn4)c3n2)CC1", "yes"],
  ["CCC/C(=N\\NC(N)=O)C(OC)OC", "yes"],
  ["O=C(CCCCCCN1CC(=O)N2[C@@H](c3ccc(Cl)cc3)c3[nH]c4ccccc4c3C[C@H]2C1=O)NO", "yes"],
  ["CCOC(=O)Cn1c(=O)c2c3ccccc3n(C)c2n2nnc(-c3ccccc3)c12", "yes"],
  ["Cc1cccc(-n2c(C)nc3ccc(N4CCCNC4=O)cc3c2=O)c1", "yes"],
  ["O=C(CN1CCN(c2cc3c(cc2F)c(=O)c(C(=O)O)cn3C2CC2)CC1)N/N=C/c1ccncc1", "yes"],
  ["CN1CCN(CCCOc2ccc3ncnc(Nc4ccc(Oc5cccc(F)c5)c(Cl)c4)c3c2)CC1", "no"],
  ["S=c1ssnc1-c1cccs1", "yes"],
  ["COc1ccc(/C=C/C(=O)c2ccc(Nc3nc(Nc4ccc(F)cc4)nc(Nc4ccc(Cl)cc4)n3)cc2)cc1", "yes"],
  ["CC1O[C@@H]2C[C@@](O)([C@H]1O)n1c3ccccc3c3c4c(c5c6ccccc6n2c5c31)C(=O)NC4=O (some centres not stated)", "yes"],
  ["COC(=O)c1ccc2c(c1)c1c(C)c3ccncc3c(C)c1n2C", "yes"],
  ["Cc1cc(C(=O)Nc2cc(Nc3ncccc3-c3ncnc4nc[nH]c34)ccc2F)cc(C(F)(F)F)c1", "yes"],
  ["COc1ccc2c(c1)c(-c1nonc1-c1c[nH]c3ccc(Br)cc13)cn2C", "no"]
]}
